Provenance of the data: patent US20240059766A1

- system_name: iPHF (UniProt P10636-8 2-441)
- Sequence (P10636 other isoform, or with tags, fused parts or gaps): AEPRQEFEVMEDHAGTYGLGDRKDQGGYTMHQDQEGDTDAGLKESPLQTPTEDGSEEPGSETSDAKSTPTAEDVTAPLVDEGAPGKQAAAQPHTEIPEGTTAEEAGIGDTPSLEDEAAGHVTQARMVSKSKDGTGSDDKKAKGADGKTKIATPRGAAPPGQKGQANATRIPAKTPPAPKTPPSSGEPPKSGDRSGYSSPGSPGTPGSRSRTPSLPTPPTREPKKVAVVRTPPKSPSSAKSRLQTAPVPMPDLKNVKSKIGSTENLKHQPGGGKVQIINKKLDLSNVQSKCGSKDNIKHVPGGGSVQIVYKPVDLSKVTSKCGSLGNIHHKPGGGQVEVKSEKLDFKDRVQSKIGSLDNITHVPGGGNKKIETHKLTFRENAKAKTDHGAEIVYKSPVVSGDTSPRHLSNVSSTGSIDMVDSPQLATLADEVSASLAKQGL
- method_description: BLI (Octet), antibody on biosensor tip
Consider the following binders; for each one, report its Kd.
Give a bare numeral; the unit nM is implied.

Task: State, in one line, measured Kd of VY018 (antibody, V domains shown) VH: QVQLQESGPGLVKPSETLSLTCTVSGGSISNYYWSWIRQPAGKGLEWIGRIYTSGDTYYNPSLQSRVTMSVDTSKNQFSLKLSAVTAADTAVYYCARAGIVGTPGLGMDVWGQGTTVTVSS VL: SYELTQPPSVSVSPGQTARITCSGEALPKQYAYWYQQKPGQAPVLVIYKDSERPSGIPERFSGSSSGTTVTLTISGVQAEDEADYYCQSADSSGTYRVFGGGTKLTVL
Result: 3

Task: For the binder VY017 (antibody, V domains shown) VH: EVQLVESGGGLVQPGGSLRLSCAASGFTFSSYSMNWVRQAPGKGLEWVSYIRSSSSTIYYADSVKGRFTISRDNAKKSLYLQMNSLRDEDTAVYYCARRSIADYWGQGTLVTVSS VL: EIVLTQSPATLSSSPGERATLSCRASQSVTSYLNWYQQKPGQAPRLLIYDASNRATGIPARFSGSGSGTDFTLTISSLEPEDFALYYCQQRSNWPYTFGQGTKLEIK , give its measured Kd value.
Result: 3.7

Task: Could you please provide reported Kd for VY009 (antibody, V domains shown) VH: QITLKESGPTLVKPTQTLTLTCTLSGFSLSTSEVGVGWIRQPPGKALEWLAIIYWNDHKRYSPSLKNRLTFTKDTSKNQVVLTMTNMDPVDTATYYCARRVTGEGFDPWGQGTLVTVSS VL: SYELTQPPSVSVSPGQTARITCSGDALPKQYAYWYQQKPGQAPVLVIFKDTERPSGIPERFSGSSSGTTVTLTISGVQAEDEADYYCQSADSSGSYVFGTGTKVTVL ? Thanks!
Result: 1.1
